Sourced from patent US12486300B2

# System: TC32 Ewing sarcoma cells, expressing EWS-FLI1
# protocol: Growth inhibition assay, TC32 cells
# Type: cell-based
# testParameters: Table 1C, cellular selectivity
# Protocol: Growth inhibition assay to assess cytotoxicity in ETS vs non-ETS expressing cells. Cells were seeded in clear 96-well plates (VWR, Radnor, PA). Seeding densities were optimized for each cell line to support 5 days of linear growth. […] Immediately following treatment, cell viability was measured for vehicle control (Day 0) wells. Cell viability was measured in the remaining wells after 72 hours of incubation with compound or vehicle control (Day 3). […]
observable: TC32 vs. PC3 (×)
Record the value in ×, omitting the unit from your answer.

COC(C(=NOCC(=O)NC(Cc1c[nH]c2ccccc12)C(=O)N1CCC1)C(O)C(C)O)C1Cc2cc3cc(OC4CC(OC5CC(O)C(O)C(C)O5)C(O)C(C)O4)c(C)c(O)c3c(O)c2C(=O)C1OC1CC(OC2CC(OC3CC(C)(O)C(O)C(C)O3)C(O)C(C)O2)C(O)C(C)O1 (stereo not shown) [MTM104]
8

Now consider a different compound.
Challenge: Requested read-out: TC32 vs. PC3. Entry: COC(C(=NOCC(=O)NC(Cc1c[nH]c2ccccc12)C(=O)N1CCOCC1)C(O)C(C)O)C1Cc2cc3cc(OC4CC(OC5CC(O)C(O)C(C)O5)C(O)C(C)O4)c(C)c(O)c3c(O)c2C(=O)C1OC1CC(OC2CC(OC3CC(C)(O)C(O)C(C)O3)C(O)C(C)O2)C(O)C(C)O1 (stereo not shown) [MTM102]
Response given: 17

---

# Tested on: TC32 Ewing sarcoma cells, expressing EWS-FLI1
# protocol: Growth inhibition assay, TC32 cells
# Assay type: cell-based
# testParameters: ratio of GI50 PC3 to TC32
observable: PC:TC32 (cellular selectivity)
When you answer, write just the number.

CO[C@H](/C(=N/OCC(=O)N[C@@H](Cc1c[nH]c2ccccc12)C(N)=O)[C@@H](O)[C@@H](C)O)[C@@H]1Cc2cc3cc(O[C@H]4C[C@@H](O[C@H]5C[C@@H](O)[C@H](O)C(C)O5)[C@H](O)C(C)O4)c(C)c(O)c3c(O)c2C(=O)[C@H]1O[C@H]1C[C@@H](O[C@H]2C[C@@H](O[C@H]3C[C@](C)(O)[C@H](O)C(C)O3)[C@H](O)C(C)O2)[C@H](O)C(C)O1 (stereo partly shown) [MTM (42)]
8.5
CO[C@H](/C(=N/OCC(=O)N[C@@H](Cc1c[nH]c2ccccc12)c1nc(C)co1)[C@@H](O)[C@@H](C)O)[C@@H]1Cc2cc3cc(O[C@H]4C[C@@H](O[C@H]5C[C@@H](O)[C@H](O)C(C)O5)[C@H](O)C(C)O4)c(C)c(O)c3c(O)c2C(=O)[C@H]1O[C@H]1C[C@@H](O[C@H]2C[C@@H](O[C@H]3C[C@](C)(O)[C@H](O)C(C)O3)[C@H](O)C(C)O2)[C@H](O)C(C)O1 (stereo partly shown) [MTM (57)]
3.3
COC(=O)C(Cc1ccccc1)NC(=O)C(Cc1c[nH]c2ccccc12)NC(=O)CON=C(C(O)C(C)O)C(OC)C1Cc2cc3cc(OC4CC(OC5CC(O)C(O)C(C)O5)C(O)C(C)O4)c(C)c(O)c3c(O)c2C(=O)C1OC1CC(OC2CC(OC3CC(C)(O)C(O)C(C)O3)C(O)C(C)O2)C(O)C(C)O1 (stereo not shown) [MTM (25)]
5.98

Now consider a different compound.
Challenge: # returns recorded PC:TC32 (cellular selectivity) (system: TC32 Ewing sarcoma cells, expressing EWS-FLI1) for CON=C(C(O)C(C)O)C(OC)C1Cc2cc3cc(OC4CC(OC5CC(O)C(O)C(C)O5)C(O)C(C)O4)c(C)c(O)c3c(O)c2C(=O)C1OC1CC(OC2CC(OC3CC(C)(O)C(O)C(C)O3)C(O)C(C)O2)C(O)C(C)O1 (stereo not shown) [MTM (1)]
Response given: 1.66
